# EXPERIMENT_DESCRIPTION: Metabolic stability in Cynomolgus monkey plasma assessed as half life at 2 uM by LC-MS/MS analysis
# Format: ADME, cell-free, Macaca fascicularis
VALUE_KIND: half-life at 2 µM

Query (compound): COc1cc(N2CCC(N3CCN(C)CC3)CC2)c(C)cc1Nc1ncc(Br)c(Nc2ccc(C)cc2P(C)(C)=O)n1 ; field requested: half-life at 2 µM
> 2 h

###

# EXPERIMENT_DESCRIPTION: Apparent permeability of compound across apical to basolateral side in human Caco-2 cells assessed as drug recovery at 10 uM incubated for 5 to 95 mins by LC-MS/MS analysis relative to control
# Type: ADME, cell-based
# RECORDED_CONDITIONS: time 5-95 min, read-out: Drug recovery
VALUE_KIND: recovery at 10 µM (%)
Enter your answer as a number in %; do not include the unit.

Query (molecule): COc1cc(N2CCC(N3CCN(C)CC3)CC2)c(C)cc1Nc1ncc(Br)c(Nc2ccc(C)cc2P(C)(C)=O)n1 ; field requested: recovery at 10 µM
88.3

###

Catalogue of molecules with associated MRT inf
# EXPERIMENT_DESCRIPTION: MRT (0 to infinity) in male Sprague-Dawley rat plasma at 10 mg/kg, po measured upto 72 hrs
# Type: ADME, organism-based
Enter your answer as a number in h; do not include the unit.

INSERT INTO results (structure_notation, observed_result) VALUES
  ('COc1cc(N2CCC(N3CCN(C)CC3)CC2)c(C)cc1Nc1ncc(Br)c(Nc2ccc(C)cc2P(C)(C)=O)n1', 17.5);

# ---- query molecule ----
Query (molecule): COc1cc(N2CCC(N3CCN(C)CC3)CC2)ccc1Nc1ncc(Cl)c(Nc2ccccc2P(C)(C)=O)n1 ; field requested: MRT inf
9.7

###

# EXPERIMENT_DESCRIPTION: Inhibition of human EGFR T790M/L792F/C797S/L858R mutant using poly[Glu:Tyr] (4:1) as substrate incubated for 120 mins in presence of [gamma33P]-ATP by Radiometric hotspot kinase assay
VALUE_KIND: IC50
Write the figure, then the unit, nothing else.

Query (compound): COc1cc(N2CCC(N3CCN(C)CC3)CC2)c(C)cc1Nc1ncc(Br)c(Nc2ccc(C)cc2P(C)(C)=O)n1 ; field requested: IC50
1.39 nM

###

# TARGET: Cytochrome P450 3A4 (Homo sapiens)
# Sequence (P08684 whole entry): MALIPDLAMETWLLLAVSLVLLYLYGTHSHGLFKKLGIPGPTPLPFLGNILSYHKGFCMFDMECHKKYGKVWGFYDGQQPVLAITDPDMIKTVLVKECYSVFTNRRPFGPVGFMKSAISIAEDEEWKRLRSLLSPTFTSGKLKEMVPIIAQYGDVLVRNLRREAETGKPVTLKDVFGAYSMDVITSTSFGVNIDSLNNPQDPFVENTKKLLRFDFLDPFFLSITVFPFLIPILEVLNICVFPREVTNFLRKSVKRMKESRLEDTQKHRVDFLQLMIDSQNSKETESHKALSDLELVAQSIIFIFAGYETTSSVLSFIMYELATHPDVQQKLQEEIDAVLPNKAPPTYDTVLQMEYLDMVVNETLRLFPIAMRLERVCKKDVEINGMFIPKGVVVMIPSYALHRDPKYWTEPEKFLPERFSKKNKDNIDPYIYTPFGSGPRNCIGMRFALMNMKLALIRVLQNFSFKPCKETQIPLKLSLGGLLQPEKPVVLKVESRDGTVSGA
pIC50: −log10 of the molar value.
VALUE_KIND: pIC50

Field: pIC50 (Cytochrome P450 3A4 (Homo sapiens)). Entry: COc1cc(N2CCC(N3CCN(C)CC3)CC2)c(C)cc1Nc1ncc(Br)c(Nc2ccc(C)cc2P(C)(C)=O)n1
< 4.30

###

# TARGET: UniProt:Q9UM73
# Sequence (Q9UM73 whole entry): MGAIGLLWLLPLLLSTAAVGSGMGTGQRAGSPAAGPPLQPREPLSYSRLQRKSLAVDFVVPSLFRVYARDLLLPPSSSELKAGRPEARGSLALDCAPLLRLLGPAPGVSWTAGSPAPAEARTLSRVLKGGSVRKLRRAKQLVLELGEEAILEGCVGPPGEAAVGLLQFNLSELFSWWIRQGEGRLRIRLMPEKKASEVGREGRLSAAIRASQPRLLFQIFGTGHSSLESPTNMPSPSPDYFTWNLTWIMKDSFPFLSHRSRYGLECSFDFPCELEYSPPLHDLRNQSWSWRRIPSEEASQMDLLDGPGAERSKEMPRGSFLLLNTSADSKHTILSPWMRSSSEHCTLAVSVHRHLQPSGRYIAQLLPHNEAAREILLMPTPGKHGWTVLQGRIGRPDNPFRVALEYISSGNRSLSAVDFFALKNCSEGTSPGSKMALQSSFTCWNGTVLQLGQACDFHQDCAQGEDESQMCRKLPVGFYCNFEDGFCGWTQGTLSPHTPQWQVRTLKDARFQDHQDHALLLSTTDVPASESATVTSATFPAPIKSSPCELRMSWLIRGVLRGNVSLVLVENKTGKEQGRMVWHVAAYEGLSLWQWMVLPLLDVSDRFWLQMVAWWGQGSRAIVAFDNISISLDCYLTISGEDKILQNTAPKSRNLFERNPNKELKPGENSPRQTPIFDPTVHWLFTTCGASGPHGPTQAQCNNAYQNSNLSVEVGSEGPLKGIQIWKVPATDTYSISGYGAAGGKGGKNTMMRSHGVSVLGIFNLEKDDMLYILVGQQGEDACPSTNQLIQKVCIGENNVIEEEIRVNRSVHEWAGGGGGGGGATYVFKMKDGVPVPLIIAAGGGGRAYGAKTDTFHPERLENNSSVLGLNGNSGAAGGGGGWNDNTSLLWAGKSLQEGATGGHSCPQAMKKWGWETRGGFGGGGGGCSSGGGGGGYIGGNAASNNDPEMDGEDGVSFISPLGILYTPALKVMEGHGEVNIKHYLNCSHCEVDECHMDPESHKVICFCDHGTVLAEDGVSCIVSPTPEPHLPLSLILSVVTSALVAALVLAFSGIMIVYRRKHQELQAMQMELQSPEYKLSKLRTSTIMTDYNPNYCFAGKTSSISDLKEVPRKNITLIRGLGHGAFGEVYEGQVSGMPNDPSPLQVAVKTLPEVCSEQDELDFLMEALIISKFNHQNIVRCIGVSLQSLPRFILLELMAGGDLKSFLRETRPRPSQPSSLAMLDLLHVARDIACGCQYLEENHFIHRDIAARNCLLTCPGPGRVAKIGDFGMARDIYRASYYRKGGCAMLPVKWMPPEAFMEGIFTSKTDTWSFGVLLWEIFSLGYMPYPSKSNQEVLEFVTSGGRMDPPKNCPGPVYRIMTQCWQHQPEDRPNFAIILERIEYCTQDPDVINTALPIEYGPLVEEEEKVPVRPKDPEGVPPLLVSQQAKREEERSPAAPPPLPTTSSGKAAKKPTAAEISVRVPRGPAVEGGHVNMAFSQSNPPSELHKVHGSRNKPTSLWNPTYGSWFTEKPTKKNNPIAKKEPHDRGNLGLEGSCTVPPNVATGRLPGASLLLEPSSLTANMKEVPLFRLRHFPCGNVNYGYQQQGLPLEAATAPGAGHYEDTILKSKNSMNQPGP
VALUE_KIND: IC50 (nM)
Enter your answer as a number in nM; do not include the unit.

Field: IC50 (UniProt:Q9UM73). Entry: COc1cc(N2CCC(N3CCN(C)CC3)CC2)c(C)cc1Nc1ncc(Br)c(Nc2ccc(C)cc2P(C)(C)=O)n1
1.02

###

# EXPERIMENT_DESCRIPTION: Oral bioavailability in male Cynomolgus monkey plasma at 3 mg/kg measured after 96 hrs LC-MS/MS analysis
# Format: ADME, organism-based, Macaca fascicularis
VALUE_KIND: bioavailability (%)
Enter your answer as a number in %; do not include the unit.

Query (compound): COc1cc(N2CCC(N3CCN(C)CC3)CC2)c(C)cc1Nc1ncc(Br)c(Nc2ccc(C)cc2P(C)(C)=O)n1 ; field requested: bioavailability
53.7

// data source = ChEMBL document CHEMBL6114963
